Molecular target: T1, hNPR1-mFc:hANP or hNPR1-hFc:hANP complex (human, UniProt P01160 124-151)
T1 construct: also called human NPR1 complexed to ANP
Assay: SPR, mAb captured, 37C
outcome-measure: Kd (nM)
Numeric answer only, unit nM assumed.

-- ask Dear colleague, I am looking for the recorded Kd of the following binder: mAb22809 (antibody, human IgG4, V domains shown) VH: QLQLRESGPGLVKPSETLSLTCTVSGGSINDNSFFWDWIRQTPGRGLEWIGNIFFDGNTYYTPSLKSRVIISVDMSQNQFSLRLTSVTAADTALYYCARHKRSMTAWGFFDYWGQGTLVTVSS VL: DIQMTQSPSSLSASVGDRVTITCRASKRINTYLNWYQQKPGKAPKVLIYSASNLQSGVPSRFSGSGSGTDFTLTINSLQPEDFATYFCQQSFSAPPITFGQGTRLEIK
-- reply 3.29

-- ask Dear colleague, I am looking for the recorded Kd of the following binder: mAb25508 (antibody, human IgG4, V domains shown) VH: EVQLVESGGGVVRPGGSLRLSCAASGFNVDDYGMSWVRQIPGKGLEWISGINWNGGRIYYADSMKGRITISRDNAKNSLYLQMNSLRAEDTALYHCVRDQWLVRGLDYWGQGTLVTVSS VL: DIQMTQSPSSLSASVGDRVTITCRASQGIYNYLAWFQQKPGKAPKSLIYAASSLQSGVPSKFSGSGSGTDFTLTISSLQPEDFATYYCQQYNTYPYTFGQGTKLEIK
-- reply 0.506

-- ask Dear colleague, I am looking for the recorded Kd of the following binder: mAb25479 (antibody, human IgG4, V domains shown) VH: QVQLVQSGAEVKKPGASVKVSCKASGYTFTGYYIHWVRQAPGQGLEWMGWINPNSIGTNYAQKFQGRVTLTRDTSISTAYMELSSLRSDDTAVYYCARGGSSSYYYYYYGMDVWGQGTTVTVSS VL: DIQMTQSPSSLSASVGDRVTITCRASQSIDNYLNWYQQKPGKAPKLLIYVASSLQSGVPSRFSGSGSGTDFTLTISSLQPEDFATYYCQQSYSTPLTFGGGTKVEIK
-- reply 2.7
